experiment: in vivo; conditions: both, Beagle, dog, plasma, po, 1 mg;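 also: Single-dose crossover across four periods with one-week washout, plasma drug levels quantified by LC-MS/MS in positive ESI mode, lower quantification limit 0.2 ng/mL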
test.readout: Tmax (min)
The response must be a number in min with no trailing unit.

Provide only the value of recorded Tmax for `Cc1nc2n(c(=O)c1CCN1CCC(c3noc4cc(F)ccc34)CC1)CCCC2` 42.6

---

assay: in vivo; settings: both, Beagle, dog, plasma, po, 1 mg
test.readout: Cmax
State the value with its unit after it.

Provide only the value of recorded Cmax for `Cc1nc2n(c(=O)c1CCN1CCC(c3noc4cc(F)ccc34)CC1)CCCC2` 45.9 ng/mL

---

assay: in vivo; settings: both, Beagle, dog, plasma, iv, 1 mg
test.readout: Cmax

Provide only the value of recorded Cmax for Cc1nc2n(c(=O)c1CCN1CCC(c3noc4cc(F)ccc34)CC1)CCCC2 [risperidone] 215 ng/mL

Origin of measurements: paper PMC7008171
